Below, IC50 values reported for Interstitial collagenase (Homo sapiens, UniProt P03956) across several publications.

Solved cases (4 shown):
{"MOLECULE": "O=C(O)CN([C@]1(C(=O)O)C[C@H]1c1ccccc1Cl)S(=O)(=O)c1ccc(-c2ccc(Cl)cc2)cc1 (relative stereo)", "TARGET": "Interstitial collagenase (Homo sapiens, UniProt P03956)", "RESULT": "≥ 10 µM"}
{"MOLECULE": "O=C(O)[C@@]1(N(Cc2cccc(O)c2)S(=O)(=O)c2ccc(-c3ccc(Cl)cc3)cc2)C[C@H]1c1ccccc1 (relative stereo)", "TARGET": "Interstitial collagenase (Homo sapiens, UniProt P03956)", "RESULT": "≥ 10 µM"}
{"MOLECULE": "O=C(O)c1cccnc1CN([C@]1(C(=O)O)C[C@H]1c1ccccc1)S(=O)(=O)c1ccc(-c2ccc(Cl)cc2)cc1 (relative stereo)", "TARGET": "Interstitial collagenase (Homo sapiens, UniProt P03956)", "RESULT": "≥ 10 µM"}
{"MOLECULE": "CC(Oc1ccccc1)C(=O)NC(CC(=O)c1ccc2oc3ccccc3c2c1)C(=O)O (stereo not shown)", "TARGET": "Interstitial collagenase (Homo sapiens, UniProt P03956)", "RESULT": "45 µM"}

Required: IC50, one value per molecule below.
1. O=C(O)[C@@H](Cc1c[nH]c2ccccc12)NS(=O)(=O)c1ccc(C#Cc2ccc3ccccc3c2)s1
2. O=C(CC(CCn1nnc2ccccc2c1=O)C(=O)O)c1cc2ccc(OCCCC3CCCCC3)cc2o1 (racemic)
3. O=C(O)[C@@]1(N(Cc2noc(=O)[nH]2)S(=O)(=O)c2ccc(-c3ccc(Cl)cc3)cc2)C[C@H]1c1cccc(Oc2ccccc2)c1 (relative stereo)
4. O=C(CC(CCn1nnc2ccccc2c1=O)C(=O)O)c1noc2cc(OCc3ccccc3)ccc12 (racemic)
5. CN(C)c1cccc2c(S(=O)(=O)N3CCN(S(=O)(=O)c4cc(F)c(Oc5ccc(Cl)cc5)c(F)c4)[C@@H](C(=O)NO)C3)cccc12
6. CN(C)c1ccc2c(S(=O)(=O)N3CCN(S(=O)(=O)c4cc(F)c(Oc5ccc(Cl)cc5)c(F)c4)[C@@H](C(=O)NO)C3)cccc2c1
7. CSCC[C@H](NS(=O)(=O)c1ccc(C#Cc2ccc3ccccc3c2)s1)C(=O)O
8. O=C(NO)[C@H]1CN(C(=O)CN2CCCCC2)CCN1S(=O)(=O)c1cc(F)c(Oc2ccc(Cl)cc2)c(F)c1

Response:
["> 10 µM", "> 40 µM", "≥ 10 µM", "> 40 µM", "> 20 µM", "> 20 µM", "> 10 µM", "> 20 µM"]

Request: So what's the measured IC50 for this one? CC(C)[C@H](NS(=O)(=O)c1ccc2c(c1)Sc1ccccc1S2)C(=O)O
Response: > 100 µM
